The origin of these recorded values is PubChem BioAssay (Tox21).

- Method summary: qHTS assay to identify small molecule agonists of the sonic hedgehog signaling (Shh) pathway - cell viability counter screen (AID 1259366); also: % is scaled to controls: 0 for no effect and ±100 for the full control effect; nearly all actives have a fitted effect of over 50% in size
- Experimental setup: NIH/3T3 Gli1-Luc viability, CellTiter-Fluor, 24 h; series mostly up to 92.4 µM
Records with an inconclusive call do not appear. Activity calls are given as the source filed them. Calls follow the shape of the dose curve; as a rule, active = well fitted cell-killing curve with a large enough effect in the repeat runs; inconclusive = weak or mixed curves, or effect the other way; inactive = flat fitted curve, though single readings scatter.
Property measured: viability change, negative = cytotoxic

Please review the entries below; each comes with its answer.
CC(C)COC(=O)C(C)C ... inactive
COc1ccc(COC=O)cc1 ... inactive
CC(=O)O[C@H](CC(=O)[O-])C[N+](C)(C)C ... inactive
C=CCn1c(=O)n([C@@H]2O[C@H](CO)[C@@H](O)[C@H]2O)c2nc(N)[nH]c(=O)c21 ... inactive
NC(=O)CCCCC1CCSS1 (configuration not stated) ... inactive
CCN1CCN(c2cc3c(cc2F)c(=O)c(C(=O)O)cn3C2CC2)CC1 ... inactive

Note to self: viability change, negative = cytotoxic recorded for CO was inactive

###

- Target or test system: Cytochrome P450 1A2 (Homo sapiens)
- Method summary: Cytochrome P450 Family 1 Subfamily A Member 2 (CYP1A2) small molecule antagonists: luciferase reporter qHTS assay (AID 1671199); also: nearly all actives have a fitted effect of over 50% in size
- Experimental setup: P450-Glo CYP1A2 enzyme, luciferin luminescence, 1 h; series mostly up to 53 µM
Inconclusive results are not listed. The source made the active and inactive calls. Calls come from the whole dose curve; as a rule, active = well fitted inhibition curve with a large enough effect in the repeat runs; inconclusive = weak or mixed curves; inactive = no such curve, though single readings can be large or run the other way.
Please state which outcome applies, choosing from active, inactive

Check out these entries, answers already filled in.
CCCC(=O)O[C@]1(C(=O)CCl)[C@@H](C)C[C@H]2[C@@H]3CCC4=CC(=O)C=C[C@]4(C)[C@@]3(F)C(=O)C[C@@]21C ... inactive
C=C(C)[C@@H]1CCC2=CC(=O)C[C@@H](C)[C@]2(C)C1 ... inactive
O=c1[nH]c2ccccc2c(=O)n1CCCl ... active
CC(C)(O)C(=O)c1ccc(OCCO)cc1 ... active
OC1OC[C@@H](O)[C@H](O)[C@H]1O (stereo partly specified) ... inactive

[Q] Record request — test call for O=S(=O)(c1cccc2cnccc12)N1CCCNCC1
[A] inactive

###

- Target or test system: Nuclear receptor subfamily 1 group I member 2 (Homo sapiens) (UniProt O75469)
- Sequence (O75469 whole entry, looked up): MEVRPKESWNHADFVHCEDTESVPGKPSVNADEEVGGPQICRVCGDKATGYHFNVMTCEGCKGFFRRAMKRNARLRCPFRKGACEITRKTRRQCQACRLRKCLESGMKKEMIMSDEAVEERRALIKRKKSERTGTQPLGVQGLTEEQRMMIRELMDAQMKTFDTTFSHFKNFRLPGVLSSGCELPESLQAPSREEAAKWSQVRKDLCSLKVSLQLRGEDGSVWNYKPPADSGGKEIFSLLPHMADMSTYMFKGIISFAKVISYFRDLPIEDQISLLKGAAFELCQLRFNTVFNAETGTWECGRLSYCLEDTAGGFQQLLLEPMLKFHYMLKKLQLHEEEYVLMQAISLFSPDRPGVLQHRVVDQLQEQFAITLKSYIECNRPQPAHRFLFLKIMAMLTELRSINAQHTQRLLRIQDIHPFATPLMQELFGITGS
- Method summary: Human pregnane X receptor (PXR) small molecule agonists, qHTS assay (AID 1346982); also: nearly all actives have a fitted effect of over 35% in size; as to activation: % is scaled to controls: 0 for no effect and ±100 for the full control effect
- Experimental setup: PXR-Luc HepG2, CYP3A4 luciferase reporter, 24 h; series mostly up to 92.4 µM
Inconclusive results are not listed. The source made the active and inactive calls. Calls come from the whole dose curve; as a rule, active = well fitted activation curve with a large enough effect in the repeat runs; inconclusive = weak or mixed curves; inactive = no such curve, though single readings can be large or run the other way.
Please state which outcome applies, choosing from Y = active, N = inactive

CCCCCCOC(=O)c1ccccc1O ... N
CCCCC1CCCCC(=O)O1 (stereo not drawn) ... N
CC(=O)c1ccc(C)cc1 ... N
CC(C)(C)C(=O)/C=C/c1ccc(Cl)cc1 ... Y
COC[C@H](c1ccc(C(F)(F)F)cc1)N1CCN(C2(C)CCN(C(=O)c3c(C)ncnc3C)CC2)C[C@H]1C ... N

[Q] Record request — test call for CCC(C)OC(=O)N1CCCCC1CCO (stereo not drawn)
[A] N

[Q] Record request — test call for CNC(=O)c1c(I)c(NC(=O)CCCCC(=O)Nc2c(I)c(C(=O)O)c(I)c(C(=O)NC)c2I)c(I)c(C(=O)O)c1I
[A] N

[Q] Record request — test call for CCCCC=O
[A] N

###

- Method summary: qHTS assay to identify small molecule agonists of the retinoic acid receptor (RAR) signaling pathway (AID 1159553); also: potency is read from the fitted curve at half-maximal effect; as to activation: % is scaled to controls: 0 for no effect and ±100 for the full control effect
- Experimental setup: C3RL4 RARE luciferase reporter, agonist, 6 h; series mostly up to 73.3 µM
Results filed as inconclusive are left out. Activity calls are given as the source filed them. Calls follow the shape of the dose curve; as a rule, active = well fitted activation curve with a large enough effect in the repeat runs; inconclusive = weak or mixed curves, or effect the other way; inactive = no such curve, though single readings can be large or run the other way.
Property measured: Potency

Please review the entries below; each comes with its answer.
Cc1onc(-c2ccccc2)c1-c1ccc(S(N)(=O)=O)cc1 ... inactive
CCCCC1CCCCC(=O)O1 (stereo unspecified) ... inactive
COc1ccc(N=[N+]([O-])c2ccc(OC)cc2)cc1 ... 27 nM (active)
CCN1CCCC1CNC(=O)c1cc(S(N)(=O)=O)ccc1OC (stereo unspecified) ... inactive
N#CCc1ccccc1[N+](=O)[O-] ... inactive

# input for lookup
Note to self: Potency recorded for O=C(CCOCCOCCOCCOCCC(=O)Nc1c(I)cc(I)c(C(=O)O)c1I)Nc1c(I)cc(I)c(C(=O)O)c1I was inactive

###

- Method summary: qHTS assay to identify small molecule agonists of the vitamin D receptor (VDR) signaling pathway - cell viability counter screen (AID 743224); also: % is scaled to controls: 0 for no effect and ±100 for the full control effect; nearly all actives have a fitted effect of over 50% in size
- Experimental setup: VDR-bla HEK293T viability, CellTiter-Glo luminescence, 16 h; series mostly up to 62.6 µM
Inconclusive results are not listed. Active and inactive are the calls of the source. Calls follow the shape of the dose curve; as a rule, active = well fitted cell-killing curve with a large enough effect in the repeat runs; inconclusive = weak or mixed curves, or effect the other way; inactive = no such curve, though single readings can be large or run the other way.
Property measured: activity change, negative = cytotoxicity

Please review the entries below; each comes with its answer.
CO[Si](CCCNCCC[Si](OC)(OC)OC)(OC)OC ... inactive
CCN(CC)C(=O)c1ccc(O)c(OC)c1 ... inactive
N#CCN(CC#N)CCN(CC#N)CC#N ... inactive
COC(=O)CCCC(=O)O ... inactive

Provide activity change, negative = cytotoxicity values for the following items, in order.
1. CCn1c(=O)c2c(nc(/C=C/c3ccc(OC)c(OC)c3)n2C)n(CC)c1=O
2. O=Cc1ccccc1[N+](=O)[O-]
3. CCCCNc1ccccc1
4. CC(=O)CCc1ccc(O)cc1
5. C#CC(C)(O)CC(C)C (stereo not given)
6. O=C(O)c1ccccc1S
7. CSc1nc(NC2CC2)nc(NC(C)(C)C)n1
8. C=C(C)[C@@H]1CCC2=CC(=O)C[C@@H](C)[C@]2(C)C1

[A]
inactive
inactive
inactive
inactive
inactive
inactive
inactive
inactive

Provide activity change, negative = cytotoxicity values for the following items, in order.
1. CCCCCCOC(=O)c1ccccc1O
2. C1COCCO1
3. NCCN1CCNC1=O

[A]
1. inactive
2. inactive
3. inactive

###

- Method summary: qHTS assay for small molecules that induce genotoxicity in human embryonic kidney cells expressing luciferase-tagged ATAD5 (AID 651632); also: % is scaled to controls: 0 for no effect and ±100 for the full control effect; nearly all actives have a fitted effect of over 15% in size
- Experimental setup: HEK293T ATAD5-luciferase induction, 16 h; series mostly up to 83.3 µM
Records with an inconclusive call do not appear. The source made the active and inactive calls. Calls follow the shape of the dose curve; as a rule, active = well fitted activation curve with a large enough effect in the repeat runs; inconclusive = weak or mixed curves; inactive = no such curve, though single readings can be large or run the other way.
Please state which outcome applies, choosing from true (active), false (inactive)

[Q] Record request — test call for CCCCc1ccc(N)cc1
[A] false

###

- Method summary: A CellTox Green Cytotoxicity Assay to monitor cytotoxicity in HepG2 cells - 8 hour (AID 1224890); also: % is scaled to controls: 0 for no effect and ±100 for the full control effect; nearly all actives have a fitted effect of over 45% in size
- Experimental setup: CellTox Green fluorescence; series mostly up to 76.8 µM
Records with an inconclusive call do not appear. Calls of active or inactive are those of the source. Calls come from the whole dose curve; as a rule, active = well fitted activation curve with a large enough effect in the repeat runs; inconclusive = weak or mixed curves; inactive = flat fitted curve, though single readings scatter.
Property measured: cytotoxicity increase

Please review the entries below; each comes with its answer.
C/C=C1\C(=O)C[C@H]2[C@@H]3CCC4=CC(=O)CC[C@]4(C)[C@H]3CC[C@]12C ... inactive
CCO[Si](C)(OCC)OCC ... inactive
NCCN1CCNC1=O ... inactive
O=c1[nH]c2ccccc2c(=O)n1CCCl ... inactive
C=C(C)C(=O)OCCC(C)OC(=O)C(=C)C (stereo not drawn) ... inactive

Provide cytotoxicity increase values for the following items, in order.
1. O=c1[nH]c(=O)n([C@H]2O[C@H](CO)[C@@H](O)[C@@H]2O)cc1/C=C\Br
2. CCCCCCCCCCCCI

[A]
1. inactive
2. inactive

Provide cytotoxicity increase values for the following items, in order.
1. O=[N+]([O-])c1ccc(CCO)cc1
2. NC(=S)Nc1cccc2ccccc12
3. CCn1cc(C(=O)O)c(=O)c2cc(F)c(N3CCN(C)CC3)cc21
4. Nc1[nH]c(=O)ncc1F
5. CC(CCO)CCCC(C)(C)O (stereo not drawn)
6. Cc1c(F)cc2c(=O)c(C(=O)O)cn3c2c1CCC3C (stereo not drawn)

[A]
1. inactive
2. 0.879% [at 6.97 µM] (inactive)
3. -10.7% [at 15.8 µM] (inactive)
4. inactive
5. inactive
6. inactive

###

- Target or test system: Progesterone receptor (Homo sapiens) (UniProt P06401)
- Sequence (P06401 whole entry, looked up): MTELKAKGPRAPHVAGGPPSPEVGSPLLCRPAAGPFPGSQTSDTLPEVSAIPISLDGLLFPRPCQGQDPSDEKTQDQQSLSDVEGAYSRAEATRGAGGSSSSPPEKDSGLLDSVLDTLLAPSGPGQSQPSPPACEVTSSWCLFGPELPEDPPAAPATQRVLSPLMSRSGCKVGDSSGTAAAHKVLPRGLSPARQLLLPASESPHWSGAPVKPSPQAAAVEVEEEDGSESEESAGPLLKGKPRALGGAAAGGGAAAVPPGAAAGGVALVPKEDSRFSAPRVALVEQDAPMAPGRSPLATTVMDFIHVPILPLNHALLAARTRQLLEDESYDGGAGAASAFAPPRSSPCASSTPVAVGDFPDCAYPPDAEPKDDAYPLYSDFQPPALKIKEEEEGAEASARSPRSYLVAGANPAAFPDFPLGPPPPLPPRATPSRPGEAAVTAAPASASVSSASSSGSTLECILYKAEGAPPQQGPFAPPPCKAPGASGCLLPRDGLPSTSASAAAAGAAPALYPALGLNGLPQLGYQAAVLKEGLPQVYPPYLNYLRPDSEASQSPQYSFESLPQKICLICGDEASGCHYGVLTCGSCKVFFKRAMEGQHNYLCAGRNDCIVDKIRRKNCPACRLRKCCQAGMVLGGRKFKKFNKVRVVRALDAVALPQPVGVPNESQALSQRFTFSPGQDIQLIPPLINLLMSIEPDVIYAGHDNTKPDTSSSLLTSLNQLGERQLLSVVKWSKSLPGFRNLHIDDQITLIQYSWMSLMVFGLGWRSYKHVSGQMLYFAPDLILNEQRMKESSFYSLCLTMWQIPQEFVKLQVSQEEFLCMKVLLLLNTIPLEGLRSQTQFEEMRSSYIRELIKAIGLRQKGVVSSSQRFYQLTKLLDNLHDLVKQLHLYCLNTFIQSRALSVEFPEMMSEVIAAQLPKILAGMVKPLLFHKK
- Method summary: qHTS assay to identify small molecule antagonists of the progesterone receptor (PR) signaling pathway (AID 1346795)
- Experimental setup: PR-UAS-bla HEK293T, beta-lactamase FRET ratio, 16 h; series mostly up to 92.4 µM
Inconclusive results are not listed. Calls of active or inactive are those of the source. The call rests on the fitted dose curve; in most records, active means well fitted inhibition curve with a large enough effect in the signal ratio in the repeat runs (not every such curve was filed as active); inconclusive means weak or mixed curves; inactive means flat fitted curve, though single readings scatter; the % refers to the signal ratio.
Please state which outcome applies, choosing from YES = active, NO = inactive

Check out these entries, answers already filled in.
CCC(C)(C)C1CCC(OC)CC1 (configuration not stated) ... NO
CC(CCO)CCCC(C)(C)O (configuration not stated) ... NO
O=C(O)c1ccc[n+]([O-])c1 ... NO
CC(C)(O)C(=O)c1ccc(OCCO)cc1 ... NO
CCN1CCN(c2cc3c(cc2F)c(=O)c(C(=O)O)cn3C2CC2)CC1 ... NO

[Q] Record request — test call for Cc1cc(C)c(NC(=O)CN(CC(=O)O)CC(=O)O)c(C)c1Br
[A] NO

[Q] Record request — test call for N#CCN(CC#N)CCN(CC#N)CC#N
[A] NO

[Q] Record request — test call for C[C@H](O)C(=O)Nc1c(I)c(C(=O)NC(CO)CO)c(I)c(C(=O)NC(CO)CO)c1I
[A] NO

[Q] Record request — test call for C#CC(O)C(CC)CCCC (configuration not stated)
[A] NO

[Q] Record request — test call for O=[N+]([O-])c1ccc(Oc2ccc([N+](=O)[O-])cc2)cc1
[A] YES

[Q] Record request — test call for CCCOCC(C)OCC(C)O (configuration not stated)
[A] NO

[Q] Record request — test call for NC1CCN(c2cccc(Cl)n2)CC1
[A] NO

[Q] Record request — test call for C=C(C)C(=O)NCCC[N+](C)(C)C
[A] NO

[Q] Record request — test call for COc1ccc(N=[N+]([O-])c2ccc(OC)cc2)cc1
[A] NO

[Q] Record request — test call for CCCCCCCCC=O
[A] NO

[Q] Record request — test call for COC[C@H](c1ccc(C(F)(F)F)cc1)N1CCN(C2(C)CCN(C(=O)c3c(C)ncnc3C)CC2)C[C@H]1C
[A] NO

[Q] Record request — test call for CC1=CC(=O)CCC1
[A] NO
